# Test system: E. coli (K12)
# procedure text: E. coli growth inhibition assay
# Assay type: cell-based, Escherichia coli
# reported conditions: Escherichia coli, 12 h, read-out: Ec IC50
pIC50: −log10 of the molar value.

>  <molecule>
CC(C)=CCC/C(C)=C/C(=O)O [Compound 14, geranic acid]

>  <pIC50>
< 3.30

$$$$
>  <molecule>
ON=C1C2CC3CC(C2)CC1C3 [Compound 16, adamantan-2-one oxime]

>  <pIC50>
< 3.30

$$$$
>  <molecule>
NC1C2CC3CC(C2)CC1C3 (stereo not drawn) [Compound 18, 2-aminoadamantane]

>  <pIC50>
< 3.30

$$$$
>  <molecule>
O=C1C2CC3CC(C2)CC1C3 [Compound 19, 2-adamantanone]

>  <pIC50>
< 3.30

$$$$
>  <molecule>
CC(C)=CCC/C(C)=C/CNCCNC1C2CC3CC(C2)CC1C3 (stereo not drawn) [Compound 1, SQ109]

>  <pIC50>
4.82

$$$$
>  <molecule>
CC(C)=CCC/C(C)=C/CNCCNC1[C@H]2C[C@@H]3C[C@H](C2)C(O)[C@H]1C3 (stereo partly drawn) [Compound 24]

>  <pIC50>
3.80

$$$$

====

Measured pIC50, listed per entry for reference.
# System: E. coli (K12)
# procedure text: E. coli growth inhibition assay
# Format: cell-based, Escherichia coli
# reported conditions: read-out: Ec IC50; growth inhibition, OD600, 12 h; ± standard error
pIC50: −log10 of the molar value.
quantity kind: pIC50

>  <compound>
CC(C)=CCC/C(C)=C/CNCCNC1C2CC3CC1CC(C2)C3O (centres unmarked)

>  <assay system>
E. coli (K12)

>  <quantity kind>
pIC50

>  <val>
4.28

$$$$
>  <compound>
C/C(=C\CNCCNC1C2CC3CC(C2)CC1C3)CCC(=O)C(C)C (centres unmarked)

>  <assay system>
E. coli (K12)

>  <quantity kind>
pIC50

>  <val>
4.24

$$$$
>  <compound>
CC(C)=CCC/C(C)=C/CNCCN

>  <assay system>
E. coli (K12)

>  <quantity kind>
pIC50

>  <val>
< 3.30

$$$$
>  <compound>
CC(C)=CCC/C(C)=C/C=NO [Compound 15a, geranial oxime]

>  <assay system>
E. coli (K12)

>  <quantity kind>
pIC50

>  <val>
< 3.30

$$$$
>  <compound>
CC(C)=CCC/C(C)=C/C=O

>  <assay system>
E. coli (K12)

>  <quantity kind>
pIC50

>  <val>
< 3.30

$$$$
>  <compound>
CC(C)=CCC/C(C)=C/CN

>  <assay system>
E. coli (K12)

>  <quantity kind>
pIC50

>  <val>
< 3.30

$$$$
>  <compound>
C/C(=C\CC/C(C)=C/CNCCNC1C2CC3CC(C2)CC1C3)CO (centres unmarked)

>  <assay system>
E. coli (K12)

>  <quantity kind>
pIC50

>  <val>
3.57

$$$$
>  <compound>
NCCNC1C2CC3CC(C2)CC1C3 (centres unmarked)

>  <assay system>
E. coli (K12)

>  <quantity kind>
pIC50

>  <val>
< 3.30

$$$$

====

# reported conditions: rabbit, in vivo

>  <compound>
C/C(=C\CNCCNC1C2CC3CC(C2)CC1C3)CCC(=O)C(C)C (stereo not shown) [Compound 12]

>  <Rabbit 1 concentration in lung tissue>
91 (20) ng/g

$$$$
>  <compound>
C/C(=C\CC/C(C)=C/CNCCNC1C2CC3CC(C2)CC1C3)CO (stereo not shown) [Compound 9]

>  <Rabbit 1 concentration in lung tissue>
720 (47) ng/g

$$$$
>  <compound>
CC(C)=CCC/C(C)=C/CNCCNC1C2CC3CC1CC(C2)C3O (stereo not shown) [Compound 23]

>  <Rabbit 1 concentration in lung tissue>
1200 (210) ng/g

$$$$
>  <compound>
CC(C)=CCC/C(C)=C/C=O [Compound 13, geranial]

>  <Rabbit 1 concentration in lung tissue>
BLQ

$$$$
>  <compound>
NCCNC1C2CC3CC(C2)CC1C3 (stereo not shown) [Compound 7, N′-adamantylethylenediamine]

>  <Rabbit 1 concentration in lung tissue>
5500 (360) ng/g

$$$$
>  <compound>
ON=C1C2CC3CC(C2)CC1C3 [Compound 16, adamantan-2-one oxime]

>  <Rabbit 1 concentration in lung tissue>
BLQ

$$$$
>  <compound>
CC(C)=CCC/C(C)=C/C(=O)O [Compound 14, geranic acid]

>  <Rabbit 1 concentration in lung tissue>
BLQ

$$$$
>  <compound>
CC(C)=CCC/C(C)=C/CN [Compound 17, geranylamine]

>  <Rabbit 1 concentration in lung tissue>
BLQ

$$$$
>  <compound>
CC(C)=CCC/C(C)=C/CNCCN [Compound 20, geranylethylenediamine]

>  <Rabbit 1 concentration in lung tissue>
310(14) ng/g

$$$$
>  <compound>
CC(C)=CCC/C(C)=C/C=NO [Compound 15a, geranial oxime]

>  <Rabbit 1 concentration in lung tissue>
BLQ

$$$$

====

# reported conditions: rabbit, in vivo

>  <compound>
CC(C)=CCC/C(C)=C/CNCCN

>  <Rabbit 2 concentration in lung tissue>
330 (54) ng/g

$$$$
>  <compound>
ON=C1C2CC3CC(C2)CC1C3

>  <Rabbit 2 concentration in lung tissue>
BLQ

$$$$
>  <compound>
CC(C)=CCC/C(C)=C/C=O

>  <Rabbit 2 concentration in lung tissue>
BLQ

$$$$
>  <compound>
NCCNC1C2CC3CC(C2)CC1C3 (stereo not shown)

>  <Rabbit 2 concentration in lung tissue>
7700 (2200) ng/g

$$$$
>  <compound>
CC(C)=CCC/C(C)=C/C=NO [Compound 15a, geranial oxime]

>  <Rabbit 2 concentration in lung tissue>
BLQ

$$$$
>  <compound>
C/C(=C\CNCCNC1C2CC3CC(C2)CC1C3)CCC(=O)C(C)C (stereo not shown)

>  <Rabbit 2 concentration in lung tissue>
220 (110) ng/g

$$$$
>  <compound>
CC(C)=CCC/C(C)=C/C(=O)O

>  <Rabbit 2 concentration in lung tissue>
BLQ

$$$$
>  <compound>
C/C(=C\CC/C(C)=C/CNCCNC1C2CC3CC(C2)CC1C3)CO (stereo not shown)

>  <Rabbit 2 concentration in lung tissue>
850 (190) ng/g

$$$$
>  <compound>
CC(C)=CCC/C(C)=C/CNCCNC1C2CC3CC1CC(C2)C3O (stereo not shown)

>  <Rabbit 2 concentration in lung tissue>
3500 (1200) ng/g

$$$$
>  <compound>
CC(C)=CCC/C(C)=C/CN

>  <Rabbit 2 concentration in lung tissue>
BLQ

$$$$

Source listed as paper PMC8918016.
